- TEST SUMMARY: Pharmacokinetic analysis of multiple doses of sepiapterin (once daily, 7 days, fed subjects)
- Format: in vivo
- TEST CONDITIONS: human, plasma, po, sepiapterin 60 mg/kg once daily, Day 1, read-out: AUC0-24 of sepiapterin
- Excerpt: Methods: Three cohorts of eight fed subjects each were randomized to receive once-daily sepiapterin or placebo for 7 days in a 6:2 ratio. A sentinel dose strategy was also used for administration of the highest sepiapterin dose.

MOLECULE: C[C@H](O)C(=O)C1=Nc2c(nc(N)[nH]c2=O)NC1 [sepiapterin]
AUC(0-t) [ng·h/mL]: 23

----------
- TEST SUMMARY: Pharmacokinetic analysis of multiple doses of sepiapterin (once daily, 7 days, fed subjects)
- Assay type: in vivo
- TEST CONDITIONS: human, plasma, po, 60 mg/kg, sepiapterin 60 mg/kg once daily, Day 1, read-out: AUC0-inf of sepiapterin
REPORTED ENDPOINT: AUC(0-inf) (ng·h/mL)

COMPOUND: C[C@H](O)C(=O)C1=Nc2c(nc(N)[nH]c2=O)NC1 [sepiapterin]
REPORTED ENDPOINT: AUC(0-inf)
UNITS: ng·h/mL
OBSERVED MEASUREMENT: 21.2

----------
- TEST SUMMARY: Pharmacokinetic analysis of multiple doses of sepiapterin (once daily, 7 days, fed subjects)
- Assay type: in vivo
- TEST CONDITIONS: human, plasma, po, 20 mg/kg, sepiapterin 20 mg/kg once daily, Day 7
REPORTED ENDPOINT: Tmax (h)

COMPOUND: C[C@H](O)C(=O)C1=Nc2c(nc(N)[nH]c2=O)NC1 [sepiapterin]
REPORTED ENDPOINT: Tmax
OBSERVED MEASUREMENT: 2.7

----------
- TEST SUMMARY: Pharmacokinetic analysis of multiple doses of sepiapterin (once daily, 7 days, fed subjects)
- Format: in vivo
- TEST CONDITIONS: human, plasma, po, 60 mg/kg, sepiapterin 60 mg/kg once daily, Day 7

MOLECULE: C[C@H](O)C(=O)C1=Nc2c(nc(N)[nH]c2=O)NC1 [sepiapterin]
Cmax (ng/mL): 2.8

----------
- TEST SUMMARY: Pharmacokinetic analysis of multiple doses of sepiapterin (once daily, 7 days, fed subjects)
- Type: in vivo
- TEST CONDITIONS: human, plasma, po, 20 mg/kg, sepiapterin 20 mg/kg once daily, Day 1
REPORTED ENDPOINT: Cmax (ng/mL)

COMPOUND: C[C@H](O)C(=O)C1=Nc2c(nc(N)[nH]c2=O)NC1 [sepiapterin]
OBSERVED MEASUREMENT: 1.2

----------
- TEST SUMMARY: Food effect on administration of sepiapterin: plasma sepiapterin and BH4, fasted vs fed
- Assay type: in vivo
- TEST CONDITIONS: human, plasma; sepiapterin 10 mg/kg oral, fasted, 24 h; read-out: Sepiapterin Concentration in Plasma, Maximum

MOLECULE: C[C@H](O)C(=O)C1=Nc2c(nc(N)[nH]c2=O)NC1 [sepiapterin]
concentration at 24 h: 0 nM

----------
- TEST SUMMARY: Food effect on administration of sepiapterin: plasma sepiapterin and BH4, fasted vs fed
- Assay type: in vivo
- TEST CONDITIONS: human, plasma; sepiapterin 10 mg/kg oral, fasted, 8 h; read-out: Sepiapterin Concentration in Plasma, Maximum
REPORTED ENDPOINT: concentration at 8 h (nM)

MOLECULE: C[C@H](O)C(=O)C1=Nc2c(nc(N)[nH]c2=O)NC1 [sepiapterin]
REPORTED ENDPOINT: concentration at 8 h
UNITS: nM
OBSERVED MEASUREMENT: 0
